Target: T1, 1xMBD-GFP (UniProt Q9Z2E2 1-75)
T1 sequence: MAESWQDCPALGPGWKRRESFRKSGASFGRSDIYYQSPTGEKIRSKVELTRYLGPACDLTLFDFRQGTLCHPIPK
Assay: SPR
Experimental endpoint: pKd
pKd field: float, defined as -log10 of concentration (mol/L).

Binder	pKd
o_m_o_o/o_o_o_o (dsDNA, strand 1 5mC18) DNA 1: GAAGTCAACAGGACGGACGCCGCGCAA DNA 2: CTCTTTCTTTGCGCGGCGTCCGTCCTGTTGACTTCCTCT	4.83
m_o_o/o_m_o (dsDNA, strand 1 5mC5; strand 2 5mC12) DNA 1: TTTGCGGTCCGCTGCCCGACCC DNA 2: GGGTCGGGCAGCGGACCGCAAA	5.26

# evaluate next
Quick note, pKd for o_m_o/m_o_o (dsDNA, strand 1 5mC10; strand 2 5mC17) DNA 1: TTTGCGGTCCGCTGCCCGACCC DNA 2: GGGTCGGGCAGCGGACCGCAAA landed at 5.10
